molecular target: β-hex; construct: other: pH 5; other: pH 7; test: β-hex enzymatic inhibition in fibroblast lysate (4-MU substrate); assay type: biochemical, human; details: pH 5
Quantity kind: Ki
Returns: string containing the numeric result and its unit.

**Q:** I have this molecule here, CC(=O)NC1CNC(CO)[C@@H](O)C1O (stereo partly shown) [AdDNJ, 2-acetamido-1,2-dideoxynojirimycin] , and I need its recorded Ki.
**A:** 253 nM
